Numbers sourced from patent CN115368458A.

Molecular target: T1, 人源hCD73-His (北京义翘神州, Catalog 10904-H08H) (human, UniProt P21589 27-547)
T1 construct: Bought protein; also called 人CD73; not shown: His tag
T1 sequence (looked up): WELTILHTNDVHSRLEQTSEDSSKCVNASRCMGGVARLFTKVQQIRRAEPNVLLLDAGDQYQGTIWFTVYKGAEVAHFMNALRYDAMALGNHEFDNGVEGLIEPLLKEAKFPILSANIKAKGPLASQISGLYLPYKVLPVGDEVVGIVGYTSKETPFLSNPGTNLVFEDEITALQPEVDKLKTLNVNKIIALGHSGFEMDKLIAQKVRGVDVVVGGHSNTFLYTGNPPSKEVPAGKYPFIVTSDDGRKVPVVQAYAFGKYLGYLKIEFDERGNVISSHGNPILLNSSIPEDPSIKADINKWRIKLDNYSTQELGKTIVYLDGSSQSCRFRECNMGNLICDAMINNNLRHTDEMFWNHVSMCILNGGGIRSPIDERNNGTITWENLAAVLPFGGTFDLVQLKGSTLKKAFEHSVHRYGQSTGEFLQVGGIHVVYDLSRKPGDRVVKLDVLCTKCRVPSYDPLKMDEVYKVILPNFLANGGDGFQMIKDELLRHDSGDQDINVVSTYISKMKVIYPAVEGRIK
Experiment: SPR, Biacore T200, antibody captured on Protein A chip, hCD73-His as analyte from 32 nM, 1:1 model
In this section, each of the binders is paired with its reported koff.

>  <binder>
抗体P59-L12 (antibody, IgG1, V domains shown) VH: EVQLVESGGGLVQPGGSLRLSCAASGFSFDTYAMSWVRQAPGKGLEWVSAISGDTGVTGYADSVKGRFTISRDNSKNTLYLQMNSLRAEDTAVYYCARDRYAYLVDGWFDYWGQGTLVTVSS VL: DIQMTQSPSSLSASVGDRVTITCRASQGISSYLAWYQQKPGKAPKLLIYAASSLQSGVPSRFSGSGSGTDFTLTISSLQPEDFATYYCQTSDFFPNPVTFGQGTKVEIK

>  <unitString>
s⁻¹

>  <koff>
0.0068

$$$$
>  <binder>
抗体P59-L17 (antibody, IgG1, V domains shown, also called P59-17) VH: EVQLVESGGGLVQPGGSLRLSCAASGFSFDTYAMSWVRQAPGKGLEWVSAISGDTGVTGYADSVKGRFTISRDNSKNTLYLQMNSLRAEDTAVYYCARDRYAYLVDGWFDYWGQGTLVTVSS VL: DIQMTQSPSSLSASVGDRVTITCRASQGISSYLAWYQQKPGKAPKLLIYAASSLQSGVPSRFSGSGSGTDFTLTISSLQPEDFATYYCQTWSGWPDYLTFGQGTKVEIK

>  <unitString>
s⁻¹

>  <koff>
0.000126

$$$$
>  <binder>
抗体P59-L6 (antibody, IgG1, V domains shown) VH: EVQLVESGGGLVQPGGSLRLSCAASGFSFDTYAMSWVRQAPGKGLEWVSAISGDTGVTGYADSVKGRFTISRDNSKNTLYLQMNSLRAEDTAVYYCARDRYAYLVDGWFDYWGQGTLVTVSS VL: DIQMTQSPSSLSASVGDRVTITCRASQGISSYLAWYQQKPGKAPKLLIYAASSLQSGVPSRFSGSGSGTDFTLTISSLQPEDFATYYCAQYDFSFYGVTFGQGTKVEIK

>  <unitString>
s⁻¹

>  <koff>
0.000198

$$$$
>  <binder>
抗体P59-L1 (antibody, IgG1, V domains shown) VH: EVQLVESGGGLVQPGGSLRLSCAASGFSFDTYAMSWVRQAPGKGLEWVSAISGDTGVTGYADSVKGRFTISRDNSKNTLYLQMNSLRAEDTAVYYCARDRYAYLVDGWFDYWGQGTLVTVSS VL: DIQMTQSPSSLSASVGDRVTITCRASQGISSYLAWYQQKPGKAPKLLIYAASSLQSGVPSRFSGSGSGTDFTLTISSLQPEDFATYYCQQASYTGDPVTFGQGTKVEIK

>  <unitString>
s⁻¹

>  <koff>
0.00557

$$$$
